% signal listing for selected compounds.
Target: Cyclophilin A (Homo sapiens)
Construct: made in house
Sequence (P62937 whole entry, species assumed): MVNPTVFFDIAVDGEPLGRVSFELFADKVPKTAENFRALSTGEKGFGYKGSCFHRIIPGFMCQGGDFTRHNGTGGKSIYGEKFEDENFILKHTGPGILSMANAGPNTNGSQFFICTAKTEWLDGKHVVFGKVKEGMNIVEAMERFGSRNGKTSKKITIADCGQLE
Experiment: AlphaLISA inhibition of binding of biotinylated Cyclosporin A to FLAG tagged Cyclophilin A
Conditions: AlphaLISA signal; test concentration not given
Where a SMILES comes first, the peptide text is derived from it. [ ]: non-standard residue; d: D form. MeBmt = C/C=C/C[C@@H](C)[C@@H](O)[C@H](NC)C(=O)O; NMeI = CC[C@H](C)[C@H](NC)C(=O)O; NMeL = CN[C@@H](CC(C)C)C(=O)O; NMeNle = CCCC[C@H](NC)C(=O)O; NMeV = CN[C@H](C(=O)O)C(C)C; NMeA = CN[C@@H](C)C(=O)O; dNMeA = CN[C@H](C)C(=O)O; Abu = CC[C@H](N)C(=O)O; Sar = CNCC(=O)O
Readout label: % signal (%)

>>> value_measured("C/C=C/C[C@@H](C)[C@@H](O)[C@H]1C(=O)N[C@@H](CC)C(=O)N(C)CC(=O)N(C)[C@H](C)C(=O)N[C@@H](C(C)C)C(=O)N(C)[C@@H](C)C(=O)N[C@@H](C)C(=O)N[C@H](C)C(=O)N(C)[C@@H](CC(C)C)C(=O)N(C)[C@@H](CC(C)C)C(=O)N(C)[C@@H](C(C)C)C(=O)N1C [Compound C3] (cyclo([MeBmt][Abu][Sar][dNMeA]V[NMeA]A[dA][NMeL][NMeL][NMeV]))")
13.43
>>> value_measured("C/C=C/C[C@@H](C)[C@@H](O)[C@H]1C(=O)N[C@@H](CC)C(=O)N(C)CC(=O)N(C)[C@@H](CCCC)C(=O)N[C@@H](C(C)C)C(=O)N(C)[C@@H](C)C(=O)N[C@@H](CC(C)C)C(=O)N[C@H](C)C(=O)N(C)[C@@H](CC(C)C)C(=O)N(C)[C@@H](CC(C)C)C(=O)N(C)[C@@H](C(C)C)C(=O)N1C [Compound C92] (cyclo([Abu][Sar][NMeNle]V[NMeA]L[dA][NMeL][NMeL][NMeV][MeBmt]))")
9.00
>>> value_measured("C/C=C/C[C@@H](C)[C@@H](O)[C@H]1C(=O)N[C@@H](CC)C(=O)N(C)CC(=O)N(C)[C@@H]([C@@H](C)CC)C(=O)N[C@@H](C(C)C)C(=O)N(C)[C@@H](C)C(=O)N[C@@H](CC(C)C)C(=O)N[C@H](C)C(=O)N(C)[C@@H](CC(C)C)C(=O)N(C)[C@@H](CC(C)C)C(=O)N(C)[C@@H](C(C)C)C(=O)N1C [Compound C81] (cyclo([MeBmt][Abu][Sar][NMeI]V[NMeA]L[dA][NMeL][NMeL][NMeV]))")
0.76
